// data source = the supplement of paper PMC10567573

B1: PRPH (parent)
chain: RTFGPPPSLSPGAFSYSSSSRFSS

variants of: B1; assay: protein stability index of a GFP-peptide fusion (GPS, HEK-293T) (PSI 1-6); higher = more stable; conditions: c terminus: a fixed tail appended;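 further: lentivirally expressed fusions sorted by FACS into six bins by GFP to DsRed ratio, PSI derived from sequencing read proportions per bin multiplied by bin number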
Could you please report measured protein stability index for the items listed next?
Answers are plain numbers.

Reference set, count: 3
sequence record: RTFGPPPSLSPGAFSSSSSSRFSS [Y16S]
quantitative readout: 3.86
//
sequence record: RTFGPPPSLSEGAFSYSSSSRFSS [P11E]
quantitative readout: 4
//
sequence record: RTFSPPPSLSPGAFSYSSSSRFSS [G4S]
quantitative readout: 3.21

Hi, could you look up protein stability index for each item in my list?
1. RTFGPFPSLSPGAFSYSSSSRFSS [P6F]
2. RTFGPPWSLSPGAFSYSSSSRFSS [P7W]
3. RTFGPPPSLSPGAFNYSSSSRFSS [S15N]
4. RTFGPPPSLSPGAFSYSGSSRFSS [S18G]
5. RTFGPPPSLSPGAFSYSSSSRISS [F22I]
6. RTFGPPPSRSPGAFSYSSSSRFSS [L9R]

Found:
1: 2.15; 2: 2.08; 3: 3.37; 4: 3.38; 5: 3.81; 6: 4.05

Hi, could you look up protein stability index for each item in my list?
1. RTFGPPPSLSPGRFSYSSSSRFSS [A13R]
2. RTFGPPPSLSPGAFSYISSSRFSS [S17I]
3. RTFGPIPSLSPGAFSYSSSSRFSS [P6I]
4. RTFGPPPSLSPGARSYSSSSRFSS [F14R]
5. RHFGPPPSLSPGAFSYSSSSRFSS [T2H]

Found:
3.01
2.55
2.9
4.11
3.17

Hi, could you look up protein stability index for each item in my list?
1. RTFGPPPSLSPCAFSYSSSSRFSS [G12C]
2. RTFGPPPSLSPGAFSYSSPSRFSS [S19P]
3. RTFGPPPSLSPGAFSYSSSVRFSS [S20V]
4. RTFGPPPSLSPGAFRYSSSSRFSS [S15R]
5. RTFGPPPSLSPGAFSYSSKSRFSS [S19K]
6. RTFGPPPSLSPGAFSYPSSSRFSS [S17P]
7. RTFGPPPSLSPGAFSYSFSSRFSS [S18F]
8. RTFGPPPSLSPGCFSYSSSSRFSS [A13C]

Found:
1. 1.96
2. 3.12
3. 2.86
4. 2.33
5. 3.7
6. 3.16
7. 2.45
8. 2.86
